Source of measurements: patent US7657380

subjectOfTest: T1, human CD30 (commercial, conjugated to digoxigenin) (human, UniProt P28908 19-379, limits assumed, conjugated to digoxigenin (DIG))
T1 sequence (looked up): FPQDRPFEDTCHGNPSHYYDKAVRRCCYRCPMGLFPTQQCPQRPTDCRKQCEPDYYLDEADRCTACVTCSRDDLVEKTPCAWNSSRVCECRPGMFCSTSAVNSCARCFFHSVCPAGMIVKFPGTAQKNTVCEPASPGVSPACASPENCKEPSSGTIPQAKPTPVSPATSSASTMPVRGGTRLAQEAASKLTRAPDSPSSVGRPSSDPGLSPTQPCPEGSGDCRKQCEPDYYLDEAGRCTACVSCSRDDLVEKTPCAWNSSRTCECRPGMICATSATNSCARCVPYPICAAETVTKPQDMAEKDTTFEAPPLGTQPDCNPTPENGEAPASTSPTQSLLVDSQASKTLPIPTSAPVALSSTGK
assayExplanation: AlphaScreen competition
Documented Fold IC50 vs H3/L3 across a set of binders

Recorded Fold IC50 vs H3/L3, per entry:
{"columns": ["binder", "measurementName", "readoutValue"],
 "data": [
  ["AC10 H3.57/L3 (antibody, IgG1, name in Kabat numbering, V domains shown) VH: QIQLVQSGPEVKKPGASVKVSCKASGYTFTDYYITWVRQAPGQGLEWMGWIYPGSGNTKYNEKFQGRFVFSVDTSASTAYLQISSLKAEDTAVYFCANYGNYWFDYWGQGTLVTVSS VL: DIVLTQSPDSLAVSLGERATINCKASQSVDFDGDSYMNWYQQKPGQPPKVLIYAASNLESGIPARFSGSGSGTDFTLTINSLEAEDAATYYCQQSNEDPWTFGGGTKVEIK", "Fold IC50 vs H3/L3", "0.53 fold"],
  ["AC10 H3.21/L3 (antibody, IgG1, name in Kabat numbering, V domains shown) VH: QIQLVQSGPEVKKPGASVKVSCKASGYTFTDYYITWVRQAPGQRLEWMGWIYPGSGNTKYNEKFQGRFVFSVDTSASTAYLQISSLKAEDTAVYFCANYGNYWFAYWGQGTLVTVSS VL: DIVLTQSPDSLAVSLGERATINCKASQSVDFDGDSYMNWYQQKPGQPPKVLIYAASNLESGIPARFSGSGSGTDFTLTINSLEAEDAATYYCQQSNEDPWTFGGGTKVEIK", "Fold IC50 vs H3/L3", "2.6 fold"]
]}

API: the following record is the query input.
What does the record list as Fold IC50 vs H3/L3 for AC10 H3.34/L3 (antibody, IgG1, name in Kabat numbering, V domains shown) VH: QIQLVQSGPEVKKPGASVKVSCKASGYTFTDYYITWVRQAPGQGLEWMGWIYPGSGNTKYAEKFQGRFVFSVDTSASTAYLQISSLKAEDTAVYFCANYGNYWFAYWGQGTLVTVSS VL: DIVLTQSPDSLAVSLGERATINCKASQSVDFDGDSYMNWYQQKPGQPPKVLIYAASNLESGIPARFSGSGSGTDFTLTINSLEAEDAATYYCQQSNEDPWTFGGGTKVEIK ?
1.3 fold
